# growth inhibition annotations
# ASSAY_INFO: antimalarial activity against Dd2 strain (AID 2302);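 also: 0% = DMSO untreated growth and 100% = chloroquine plus artemisinin killed control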
# DETAILS: P. falciparum Dd2 in RBCs, LDH growth readout, 72 h; at 2 µM; stronger effect = higher value

MOLECULE	UNITS_TEXT	growth inhibition
CC[C@H]1CN2CC[C@@H]1C[C@H]2[C@H](O)c1cc(N2CCCC(C)(C)C2)nc2ccc(OC)cc12	%	72
COc1ccc(OC)c(C=CC(=O)NC2CCC(CN3CCC(c4c[nH]c5ccccc45)CC3)CC2)c1 (stereo not given)	%	62
COc1ccc(CCNCc2ccc3nc(N)cc(C)c3c2)cc1	%	86
CC(=O)N(Cc1ccccc1-c1cccc(CNCCc2ccccc2)c1)C1CCN(Cc2ccccc2)CC1	%	30
Oc1ccccc1CNCC(O)c1cc(C(F)(F)F)cc(C(F)(F)F)c1 (stereo not given)	%	100

----------
# ASSAY_INFO: decreased DLD-1 cellular survival, CellTiter-Glo luminescent readout, NPC compound collection, primary HTS (AID 1117346)
# DETAILS: DLD-1 viability, CellTiter-Glo luminescence; at 20 µM (top of the series)

COMPOUND	viability decrease (inhibition), %
Clc1cccc(SC2CCNCC2)n1	-11.3
C[C@@H]1O[C@@H](O[C@H]2C[C@@H](O)[C@]3(CO)[C@H]4[C@H](O)C[C@]5(C)[C@@H](C6=CC(=O)OC6)CC[C@]5(O)[C@@H]4CC[C@]3(O)C2)[C@H](O)[C@H](O)[C@H]1O	77.4
Clc1ccc(CSC(Cn2ccnc2)c2ccc(Cl)cc2Cl)cc1 (stereo not drawn)	104
CC(C(O)c1ccccc1)N(C)C/C=C/c1ccccc1 (stereo not drawn)	7.9
COc1cccc(C(=O)CCN[C@@H](C)[C@H](O)c2ccccc2)c1	75.9
COc1ccc(Cc2nccc3cc(OC)c(OC)cc23)cc1OC	14.5
CC[C@]1(O)CC[C@H]2[C@@H]3CCC4=CCCC[C@@H]4[C@H]3CC[C@@]21C	73
CN(C)CCc1ccc(O)cc1	-0.4
Cc1ccc([N+](=O)[O-])[c]2c1[O][Hg]2	103
CC(=O)OCC1=C(C(=O)O)N2C(=O)[C@@H](N)[C@H]2SC1	29.3
COc1c2c(cc3c1OCO3)CCN(C)C2	4.85
C1CCC(NC2CCCCC2)CC1	-4.45
O=C(NCNC(=O)NC1C(=O)NC(=O)N1CO)NC1C(=O)NC(=O)N1CO (stereo not drawn)	8.4
CCO[C@H]1O[C@@H]2OC3(C)CC[C@H]4[C@H](C)CC[C@@H]([C@H]1C)[C@@]24OO3	37.1
C[C@]12CC[C@@H]3c4ccc(OC(=O)N(CCCl)CCCl)cc4CC[C@H]3[C@@H]1CC[C@@H]2O	23.4
CN[C@@H]1C[C@@H](c2ccc(Cl)c(Cl)c2)c2ccccc21	102
NCC1(CC(=O)O)CCCCC1	-8.35
c1ccc2nc(N3CCNCC3)ccc2c1	25
C=C1C[C@@H]2[C@H](CC[C@]3(C)C(=O)CC[C@@H]23)[C@@]2(C)C=CC(=O)C=C12	-20.4
NC(=O)OCCCc1ccccc1	-16.8
CC(C)(C)OC(=O)c1ncn2c1[C@@H]1CCCN1C(=O)c1c(Br)cccc1-2	7.7
CCN(CC)CCOC(=O)C(O)(c1ccccc1)c1ccccc1	2.6
O=C(NC(=O)c1c(F)cccc1F)Nc1cc(Cl)c(OC(F)(F)C(F)C(F)(F)F)cc1Cl (stereo not drawn)	16.2
CCC1(c2ccccc2)C(=O)N(COC)C(=O)N(COC)C1=O	62.9
C#CCN(C)[C@H](C)Cc1ccccc1	8.8
OC(c1ccccc1)(c1ccccc1)C1CCNCC1	2.9
CCCCCCCCCCCCCCCC[N+](C)(C)C	104
O=C1NCN(c2ccccc2)C12CCN(CC1COc3ccccc3O1)CC2 (stereo not drawn)	3.2
CC(C)c1cccc(C(C)C)c1O	100
CCN[C@@H](C)Cc1cccc(C(F)(F)F)c1	-6.6
O=P1(NCCCl)OCCCN1CCCl (stereo not drawn)	-5.2
O=[N+]([O-])c1ccc([As](=O)(O)O)cc1	-9.5
CN1CCC(N(Cc2ccccc2)c2ccccc2)CC1	23.2
CN(C)C(=O)Oc1cc(OC(=O)N(C)C)cc(C(O)CNC(C)(C)C)c1 (stereo not drawn)	-13
CCN(CC)N(O)N=O	-7.7
COc1ccc(CN2CCNCC2)c(OC)c1OC	1.5
CC1=C(C(=O)O)N2C(=O)[C@@H](N)[C@H]2SC1	21.2
C[C@]12CCC(=O)C=C1CC[C@@H]1[C@@H]2CC[C@]2(C)C(=O)CC[C@@H]12	45.9
C[C@@H]1CC[C@H]2[C@@H](C)C(=O)O[C@@H]3O[C@@]4(C)CC[C@@H]1[C@]32OO4	1.3
N[C@@H](Cc1ccc(Oc2cc(I)c(O)c(I)c2)c(I)c1)C(=O)O	-13.1
NN=C(N)N	-6
O=C(CCCN1CCC2(CC1)C(=O)NCN2c1ccccc1)c1ccc(F)cc1	83.7
Clc1ccccc1N1CCNCC1	2
COc1ccc(C(CN(C)C)C2(O)CCCCC2)cc1 (stereo not drawn)	-3.8
O=C(O)c1ccc2[nH]cc(CCCCN3CC=C(c4ccccc4)CC3)c2c1	-14.3
O=C(O)C(Cl)Cl	8.5
CCS(=O)(=O)C(C)(C)S(=O)(=O)CC	-0.85
Nc1ccccc1C(=O)OCC(O)CO (stereo not drawn)	-4.9

----------
# z-score annotations
# ASSAY_INFO: viability rescue of complex I mutant cybrids, primary screen, cell-based, galactose medium, ATP luminescence (AID 1645843);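 also: positive z means more ATP and so rescue of galactose-driven cybrid death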
# DETAILS: complex I mutant cybrid cells, 72 h, stronger effect = higher value

COMPOUND	z-score
CCCCCCC[n+]1ccc(-c2cc[n+](CCCCCCC)cc2)cc1	-1.1
CCCC[N+]1(C)C2CC(OC(=O)[C@H](CO)c3ccccc3)CC1C1OC12 (stereo partly specified)	0.72
C[C@H]1C2Cc3ccc(O)cc3C1(C)CCN2CC1CC1 (stereo partly specified)	-0.12
C[N+]1(CCC(C(N)=O)(c2ccccc2)c2ccccc2)CCCCC1	0.675
CCCCC(C#N)(Cn1cncn1)c1ccc(Cl)cc1 (stereo unspecified)	0.815
COc1ccc(Cc2nccc3cc(OC)c(OC)cc23)cc1OC	-1.28
NC(=O)CS(=O)C(c1ccccc1)c1ccccc1 (stereo unspecified)	0.66
CN1CCC(c2ccc(F)cc2)C(COc2ccc3c(c2)OCO3)C1 (stereo unspecified)	-1.4
CCCN1CCC[C@@H]2Cc3nc(N)ncc3C[C@H]21	0.925
CC[C@@]1(O)C(=O)OCc2c1cc1n(c2=O)Cc2cc3c(O)cccc3nc2-1	-2.13
NCC(CS(=O)(=O)O)c1ccc(Cl)cc1 (stereo unspecified)	0.475

----------
# ASSAY_INFO: growth inhibition of CRL1545 osteosarcoma cells, cell-based, cisplatin and BGB IC20 combos (AID 1671464);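 also: cells exposed to compound for 96 hours before readout; 0% = vehicle DMSO and 100% = high DMSO killing control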
# DETAILS: single agent, at 5 µM, stronger effect = higher value
# inhibition annotations

MOLECULE	UNITS_TEXT	inhibition
Cc1c2ccncc2c(C)c2c1[nH]c1ccccc12	%	68.6
Cn1c(COP(=O)(NCCBr)NCCBr)cnc1[N+](=O)[O-]	%	52.6
COc1cc(C2c3cc4c(cc3C(O)C3COC(=O)C23)OCO4)cc(OC)c1OC (configuration not stated)	%	85.7
CN(C)NC(=O)CCC(=O)O	%	-28
O=C(O)CCCc1ccc(N(CCCl)CCCl)cc1	%	10.1
Cn1c(CCCC(=O)O)nc2cc(N(CCCl)CCCl)ccc21	%	-15.4
O=C1CCC[C@@H]2[C@H]3CCCN4CCC[C@@H](CN12)[C@@H]34	%	-58

----------
# ASSAY_INFO: HepG2 cytotoxicity, primary screen, cytotoxicity control for P. falciparum antimalarial project, cell-based, ATP luminescence (AID 2303);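 also: 0% = DMSO wells and 100% = digitonin-killed cells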
# DETAILS: HepG2 viability, 24-48 h, at 10 µM, stronger effect = higher value
MEASURED_QUANTITY: inhibition (%)

COMPOUND	MEASURED_QUANTITY	UNITS_TEXT	MEASURED_VALUE
CC(C)CNCc1ccc(-c2ccc(CN(C(=O)Nc3ccccc3)C3CCN(Cc4ccccc4)CC3)cc2)cc1	inhibition	%	27
Cc1[nH]c2ccccc2c1C1=CCN(CCCCC2(C)C(=O)Nc3ccccc32)CC1 (stereo not drawn)	inhibition	%	8
COc1cccc(CCNC(C)Cc2ccc(OCCCCOc3ccccc3)cc2)c1 (stereo not drawn)	inhibition	%	100
CC(=O)N(Cc1ccccc1-c1cccc(CNCc2ccc3c(c2)OCO3)c1)C1CCN(Cc2ccccc2)CC1	inhibition	%	17
COc1cccc(CC(C)NCC(O)c2cccc(Cl)c2)c1 (stereo not drawn)	inhibition	%	7
COC(=O)c1ccc(CC(C)NCC(O)c2ccccc2Cl)cc1 (stereo not drawn)	inhibition	%	1
CC(Cc1ccc(Oc2ccccc2)cc1)NCC(O)c1cccc(C(F)(F)F)c1 (stereo not drawn)	inhibition	%	16
O=C(NC1CCN(CCc2c[nH]c3ccc(F)cc23)CC1)c1ncc(-c2ccccc2)[nH]1	inhibition	%	-3
COC(=O)CN(C(=O)/C=C/c1ccc(Cl)c(Cl)c1)C1CCC(CN2CCC(c3c[nH]c4ccccc34)CC2)CC1 (stereo not drawn)	inhibition	%	31
O=C1c2ccccc2CCC1CCN1CC=C(c2c[nH]c3ccccc23)CC1 (stereo not drawn)	inhibition	%	5
Cc1cc2cc(CNCCc3ccccc3Br)ccc2nc1N	inhibition	%	31
COC(=O)c1ccc(C[C@@H](C)NC[C@H](O)c2cccc(OCc3ccccc3)c2)cc1	inhibition	%	11
CC(Cc1ccc(Oc2ccc(Cl)cc2)cc1)NCC(O)c1cccc(Cl)c1 (stereo not drawn)	inhibition	%	3
COCCSc1ccc(CC(C)NCC(O)c2cccc(Cl)c2)cc1 (stereo not drawn)	inhibition	%	2
CCN1CC[C@]2(c3cccc(OC)c3)Cc3nc4ccccc4c(-c4ccccc4)c3C[C@H]2C1	inhibition	%	0
COc1ccc(C(=O)[C@H]2C[C@@H]2CN2CC=C(c3c[nH]c4ccccc34)CC2)cc1	inhibition	%	12
O=C(Nc1ccc(Cl)c(Cl)c1)N1CCC(CN2CCC(c3c[nH]c4ccccc34)CC2)CC1	inhibition	%	46
CC(Cc1ccc(CSC(C)C)cc1)NCC(O)c1cccc(Cl)c1 (stereo not drawn)	inhibition	%	11
O=C(/C=C/c1ccc(F)c(C(F)(F)F)c1)N1CCC(CN2CCC(c3c[nH]c4ccccc34)CC2)CC1	inhibition	%	23
CCOC(C(=O)OCCN(C(C)C)C(C)C)(c1ccccc1)c1ccccc1	inhibition	%	4
COCC(=O)N(Cc1cccc(-c2ccc(CNCCc3ccccc3)cc2)c1)C1CCN(Cc2ccccc2)CC1	inhibition	%	44
COC(=O)c1ccc(CC(C)NCC(O)c2cccc(Oc3cccc(C(F)(F)F)c3)c2)cc1 (stereo not drawn)	inhibition	%	19
CC(C)CNCc1cccc(-c2ccc(CN(C(=O)NC3CCCCC3)C3CCN(Cc4ccccc4)CC3)cc2)c1	inhibition	%	27
O=C(/C=C/c1ccc(Cl)c(Cl)c1)Nc1cccc(CN2CCC(c3c[nH]c4ccc(O)cc34)CC2)c1	inhibition	%	11
COc1cc2c(c(OC)c1OC)C[C@H]1c3c(cc4c(c3-2)OCO4)CCN1C	inhibition	%	7
CC[C@H]1C[N+]2([O-])CC[C@@H]1C[C@H]2[C@H](O)c1cc(-c2ccccc2)nc2ccc(OC)cc12	inhibition	%	-11
CC[C@H]1CN2CC[C@H]1C[C@H]2[C@H](O)c1cc(Cl)nc2ccc(OC)cc12	inhibition	%	0
O=c1c2ccccc2nc(C=Cc2ccc([N+](=O)[O-])cc2)n1-c1ccccn1	inhibition	%	5
CCCCNC(c1ccc(Cl)cc1)C(O)c1ccc(Cl)cc1 (stereo not drawn)	inhibition	%	13
CO/C(=C\C=C\c1cc2cc(Cl)c(Cl)cc2[nH]1)C(=O)N[C@H]1CN2CCC1CC2	inhibition	%	43
OC(CNCc1ccccc1OC(F)F)c1cccc(C(F)(F)F)c1 (stereo not drawn)	inhibition	%	2
Cc1ccc(CC(C)(C)NCC(O)c2cccc(C(F)(F)F)c2)cc1 (stereo not drawn)	inhibition	%	19
OC1(c2ccc(Cl)c(C(F)(F)F)c2)CCN(CCOC2c3ccccc3CSc3ccc(Cl)cc32)CC1 (stereo not drawn)	inhibition	%	3
CCCCCc1cc(O)c2c(c1)OC(C)(C)c1ccncc1-2	inhibition	%	-5
CC(=O)C1(c2ccccc2)CCN(CCC(NC(=O)c2cc(C(F)(F)F)cc(C(F)(F)F)c2)c2ccc(Cl)c(Cl)c2)CC1 (stereo not drawn)	inhibition	%	9
CC[C@H]1CN2CC[C@@H]1C[C@H]2[C@H](O)c1cc(-c2cc(Cl)cc(Cl)c2)nc2ccc(OC)cc12	inhibition	%	0
CCCCCc1cc(O)c2c(c1)OC(C)(C)CC2C1=CCN(Cc2cccnc2)CC1 (stereo not drawn)	inhibition	%	15
COc1cc(C=CC(=O)N2CCC(CN3CCC(c4c[nH]c5ccccc45)CC3)CC2)cc(OC)c1	inhibition	%	19

Where do the numbers come from? From PubChem BioAssay.
